- TARGET: T1, cynomolgus monkey PD-L1 on CHO-K1 cells overexpressing cynomolgus monkey PD-L1 (cynomolgus monkey, UniProt G7PSE7 19-290)
- T1 construct: also called CHO-K1/cynoPD-L1; GenScript M00573
- T1 sequence (G7PSE7 entry or part of it limits assumed): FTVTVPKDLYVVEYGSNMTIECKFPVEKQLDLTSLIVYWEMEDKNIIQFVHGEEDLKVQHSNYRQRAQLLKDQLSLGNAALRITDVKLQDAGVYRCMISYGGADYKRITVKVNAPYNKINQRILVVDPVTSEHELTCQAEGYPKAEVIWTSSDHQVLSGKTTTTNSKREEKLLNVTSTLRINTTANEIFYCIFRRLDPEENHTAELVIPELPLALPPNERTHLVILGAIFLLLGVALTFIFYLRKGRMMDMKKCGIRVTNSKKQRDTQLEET
- TEST DESCRIPTION: flow cytometry on CHO-K1 cells overexpressing cynomolgus monkey PD-L1 (CHO-K1/cynoPD-L1)
TEST READOUT: EC50 (nM)
Please respond with the number in nM and leave the unit unwritten.

Reference set (3 entries):
[
  {
    "BINDER": "PR002082 (antibody, human IgG1, V domains shown, HCAb; also called PTM variant of PR000960 (N28T, N31S)) VH: QVQLVESGGGVVQPGMSLRLSCAASGFTFSSYGMYWVRQAPGKGQEWVAIIWYDGTKKHYADSVKGRFTISRDNSKNTLYLEMNSLRVEDTAVYYCAKNRAIFGVVPDASDIRGQGTMVTVSS",
    "EC50 (nM)": 0.386
  },
  {
    "BINDER": "PR001061 (antibody, human IgG1, V domains shown, Heavy-chain-only antibody (HCAb): human VH fused to human IgG1 Fc; no light chain; also called anti-PD-L1 HCAb antibody) VH: EVQLLESGGGVVQPGRSLRLSCAASGFNFSSYGMYWVRQAPGKGQEWVAIIWYDGSRKHYADSVKGRFTISRDNSKNTLYLEMNSLRAEDTAMYYCAKNRAIFGVVPDASDIRGQGTMVTVSS",
    "EC50 (nM)": 0.4
  },
  {
    "BINDER": "PR002079 (antibody, human IgG1, V domains shown, HCAb; also called PTM variant of PR000960 (N28T)) VH: QVQLVESGGGVVQPGMSLRLSCAASGFTFSNYGMYWVRQAPGKGQEWVAIIWYDGTKKHYADSVKGRFTISRDNSKNTLYLEMNSLRVEDTAVYYCAKNRAIFGVVPDASDIRGQGTMVTVSS",
    "EC50 (nM)": 0.376
  }
]

Below: the item to evaluate.
**Query** What value of EC50 has been reported for the following binder? PR000960 (antibody, human IgG1, V domains shown, Heavy-chain-only antibody (HCAb): human VH fused to human IgG1 Fc; no light chain; also called anti-PD-L1 HCAb antibody) VH: QVQLVESGGGVVQPGMSLRLSCAASGFNFSNYGMYWVRQAPGKGQEWVAIIWYDGTKKHYADSVKGRFTISRDNSKNTLYLEMNSLRVEDTAVYYCAKNRAIFGVVPDASDIRGQGTMVTVSS
**Result** 0.421

src = patent US20240269276A1
